Kindly supply the reported z-score values for the records listed here.
- TESTED ON: NADPH oxidase 4 (Homo sapiens) (UniProt Q9NPH5)
- Sequence (Q9NPH5 whole entry, looked up): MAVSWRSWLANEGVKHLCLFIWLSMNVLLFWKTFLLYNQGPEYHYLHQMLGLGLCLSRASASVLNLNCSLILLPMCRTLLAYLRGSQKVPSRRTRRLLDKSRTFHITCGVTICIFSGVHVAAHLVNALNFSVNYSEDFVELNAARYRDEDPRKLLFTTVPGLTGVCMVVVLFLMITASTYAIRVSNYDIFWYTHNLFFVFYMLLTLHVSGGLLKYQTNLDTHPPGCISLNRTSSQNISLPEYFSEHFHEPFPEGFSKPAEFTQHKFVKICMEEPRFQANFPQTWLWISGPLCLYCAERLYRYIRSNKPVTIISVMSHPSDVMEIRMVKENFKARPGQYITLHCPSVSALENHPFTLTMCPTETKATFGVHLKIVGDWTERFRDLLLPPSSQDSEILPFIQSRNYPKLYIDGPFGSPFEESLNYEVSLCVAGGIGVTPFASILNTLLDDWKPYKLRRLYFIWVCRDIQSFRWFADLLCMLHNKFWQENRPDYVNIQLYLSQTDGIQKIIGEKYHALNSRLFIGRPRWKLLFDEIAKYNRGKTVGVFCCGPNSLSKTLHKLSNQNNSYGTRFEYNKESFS
- METHOD: NOX4-dependent H2O2 signal modulators, primary screen, NOX inhibitor project, cell-based, HEK293-NOX4, tetracycline-induced, Amplex Red fluorescence (AID 1160)
- SETUP CONDITIONS: 45 min, higher = more signal, called active from +8 up or from −8 down
Provide a numeric answer; units are not to be included.

// sample "Cc1ccc(S[C@]2(C(=O)NCC(F)(F)F)CC(=O)N(C3CCCCC3)[C@@H]2c2ccc(CO)cc2I)cc1" , its z-score was 0.661

So, "C[C@]1(C(=O)NC2CC2)c2ccccc2C(=O)N(Cc2ccccc2)[C@H]1c1ccc(CO)cc1" ? Its z-score was -1.55

Value of measured z-score for the entry "O=C1O[C@@H](c2ccccc2)[C@@H](c2ccccc2)N2[C@@H](c3ccc(O)cc3)[C@]3(C(=O)Nc4ccc(C#CC5(O)CCCCCC5)cc43)[C@@H](C(=O)NC[C@H](O)c3ccccc3)[C@H]12" : 0.441

Value of measured z-score for the entry "CCOC(=O)C[C@H]1[C@H](OC(=O)c2ccccc2-c2ccccc2)[C@@H](NC(=O)C2CCCCC2)c2cc(OCCCO)ccc2N1C(=O)Cc1ccc(OC)cc1" : 0.979

The reported z-score of the compound C[C@@H]1NC(=O)[C@@]23C(=O)N[C@@H](Cc4ccccc4)C2[C@H](C)[C@@]2(C)O[C@H]2C3/C=C/C/C=C\CNC(=O)[C@@H]2CCCN2C1=O (some centres undefined) was 0.581

The compound listed as "O=C1O[C@@H](c2ccccc2)[C@@H](c2ccccc2)N2[C@@H](c3ccc(OCCO)cc3)[C@]3(C(=O)Nc4ccccc43)[C@@H](C(=O)O)[C@H]12" has a reported z-score of -0.444

z-score measured on "C=CC[C@]1(C(=O)NCCN2CCOCC2)N=C(c2ccc(OCCCO)cc2)O[C@H]1c1ccccc1CN=[N+]=[N-]" = 1.16

Noted for "CCCCCCc1nc(C2CC2)cc2c1[Si](C(C)C)(C(C)C)O[C@H]2c1ccccc1" : its z-score reads -0.00134

Data point: CN1C(=O)C2C=CC(C(O)c3cccc4ccccc34)N(N3CCCCC3)C2C1=O (centres undefined) ; z-score = -1.97

Form field z-score, entry "CC(C)Cc1ccc(CN2CC[C@@H](NC(=O)Nc3ccccc3)C2)cc1" : -0.351

Data point: CC(C)(C)N1CC=CC23O[C@@H]4C=CCCOC(=O)C4[C@H]2C(=O)N(CCO)[C@@H]3C1=O (some centres undefined) ; z-score = 0.696

Looking up Cc1cc(C)c(C(O)C2C=CC3C(=O)N(c4ccccc4)C(=O)C3N2Nc2ccc(C(C)C)cc2)c(C)c1 (centres undefined) , I see its z-score listed as -3.87

The value of z-score measured for the compound O=C1C2C=CC(C(O)c3ccc(Br)cc3)N(Nc3ccccc3F)C2C(=O)N1c1ccccc1 (centres undefined) turned out to be -2.56

z-score for "COc1ccc(C#Cc2ccc3c(c2)[C@]2(C(=O)N3)[C@H](c3ccc(O)cc3)N3[C@H](c4ccccc4)[C@H](c4ccccc4)OC(=O)[C@H]3[C@@H]2C(=O)O)cc1" is -2.46

Note to self: z-score recorded for [N-]=[N+]=Nc1ccccc1[C@@H]1OC(c2ccc(OCCCO)cc2)=N[C@]1(Cc1ccccc1)C(=O)NCC(O)CO (some centres undefined) was 1.07

Entry O=C1OCC=C[C@H]2OC34C=CCN(c5ccc(Cl)cc5)C(=O)[C@H]3N(CCO)C(=O)[C@@H]4[C@@H]12 (some centres undefined) , z-score reported as 0.908

Measured z-score of "COCCOC(=O)N1C(=O)[C@@]2(c3ccccc31)[C@H](C(=O)N1CCN(c3ncccn3)CC1)[C@H]1C(=O)O[C@H](c3ccccc3)[C@H](c3ccccc3)N1[C@@H]2c1ccc(O)cc1" : -0.0154

Per the record, CC(C)(C)N1CC=CC23O[C@@H]4C=CCOC(=O)[C@@H]4[C@H]2C(=O)N(CCCCCCO)[C@@H]3C1=O (some centres undefined) has z-score of -0.503

Entry under test: "CCOC(=O)C1=CC[C@@H](c2ccccc2C(F)(F)F)N(S(=O)(=O)c2ccc(C)cc2)[C@H]1c1ccc(C#N)cc1" . Its z-score was 0.699

Documented z-score of "COCCOC(=O)N1C(=O)[C@@]2(c3cc(C#CCCO)ccc31)[C@H](c1ccccc1OCCO)N1[C@H](c3ccccc3)[C@H](c3ccccc3)OC(=O)[C@H]1[C@@H]2C(=O)Nc1nc2ccccc2s1" : 0.781

Reported z-score ( C[C@H]1NC(=O)[C@@]23C(=O)N[C@@H](Cc4ccccc4)C2[C@H](C)[C@@]2(C)O[C@H]2C3/C=C/C/C=C\CNC(=O)[C@H](Cc2ccccc2)NC1=O (some centres undefined) ) = -1.2

Query "COC(=O)c1c2oc(c1C(=O)OC)C(=O)N(C)Cc1cn(nn1)C[C@H](Cc1ccccc1)NC(=O)N[C@H](CO)CC2" yields z-score of 0.338

Notebook: COc1cc2c(cc1O)C(C)N(Cc1ccc([N+](=O)[O-])o1)CC2 (centres undefined) , z-score read as -2.17

So for "CN(C)CCCNC(=O)[C@@]1(c2ccc([N+](=O)[O-])cc2)CC(=O)N(CC23CC4CC(CC(C4)C2)C3)[C@@H]1c1ccc(CO)cc1I" , the logged z-score turned out to be -5.46

Value of measured z-score for the entry "C=C(COC)/C(=C/C[C@H](OC(C)=O)c1ccc(OCCO)cc1)c1cc(C(=O)OC)ccc1OC" : 1.03

Measured z-score, "CCCC[C@@H](O)C1=C(COc2ccccc2)C[C@H]2C(=O)N(C)C(=O)[C@H]2[C@H]1CO" : 0.449

Kindly note the recorded z-score for "C=C(/C(=C/C[C@H](OC(=O)c1ccncc1)c1ccc(CO)o1)c1cc(C(=O)OC)ccc1OC)C(C)C" , which is -0.154

z-score for C=CCC(OC(C)=O)[C@@H]1[C@@H](N(Cc2cc3ccccc3o2)C(=O)Cc2ccc(F)cc2)c2cc(OCCCO)ccc2N1C(=O)c1ccc2ccccc2c1 (some centres undefined) is 0.957

// z-score value for CC(=O)c1ccc(C(O)C2C=CC3C(=O)N(c4ccccc4)C(=O)C3N2Nc2ccc(C#N)cc2)cc1 (centres undefined) : -5.89
